- System: male dd mice
- experimentSummary: Acute toxicity test (minimum lethal dose, MLD)
- Format: in vivo
- conditionsUsed: p.o., 7 days
observable: Acute Toxicity (MLD)

Examples from the recorded data:
- molecule: "CNC(=C[N+](=O)[O-])NCCSCc1ccc(CN(C)C)o1 [Ranitidine, reference compound]"
  Acute Toxicity (MLD): "> 300 mg/kg"
- molecule: "CN(CCN1CCNC1=C(C#N)C#N)Cc1ccc(CN2CCCCC2)o1"
  Acute Toxicity (MLD): "> 300 mg/kg"

Q: Read off the recorded Acute Toxicity (MLD) for CCN(CC)CCNC(=O)c1cc(Cl)c(N)cc1OC [Metoclopramide, reference compound]
Ans: 200 mg/kg

Q: Read off the recorded Acute Toxicity (MLD) for CNC(NCCCNCc1ccc(CN(C)C)o1)=C(C#N)C#N
Ans: > 300 mg/kg

Q: Read off the recorded Acute Toxicity (MLD) for CNC(=C[N+](=O)[O-])NCCNCc1ccc(CN(C)C)o1
Ans: > 300 mg/kg

Q: Read off the recorded Acute Toxicity (MLD) for N#CC(C#N)=C1NCCN1CCNCc1ccc(CN2CCCC2)o1
Ans: > 300 mg/kg

Q: Read off the recorded Acute Toxicity (MLD) for CCN(C)Cc1ccc(CNCCN2CCNC2=C(C#N)C#N)o1
Ans: > 300 mg/kg

====

- Tested on: male dd mice
- experimentSummary: Acute toxicity test (minimum lethal dose, MLD)
- Type: in vivo
- conditionsUsed: p.o., 7 days
observable: Acute Toxicity (MLD)

Examples from the recorded data:
- molecule: "N#CC(C#N)=C1NCCN1CCNCc1ccc(CN2CCCCCC2)o1 [Compound 29]"
  targetDesc: "male dd mice"
  Acute Toxicity (MLD): "200 mg/kg"
- molecule: "N#CC(C#N)=C1NCCN1CCNCc1ccc(CN2CCSCC2)o1 [Compound 38]"
  targetDesc: "male dd mice"
  Acute Toxicity (MLD): "> 300 mg/kg"

Q: Read off the recorded Acute Toxicity (MLD) for CN(C)Cc1ccc(CNCCN2CCNC2=C(C#N)C#N)o1 [Compound 22]
Ans: > 300 mg/kg

FYI, the data here is from patent US5075301A.
